System: SNB-19 CNS
EXPERIMENT SUMMARY: NCI-60 one-dose screen, 48 h
TEST CONDITIONS: 10 µM unless noted
About 83,000 compounds went through this panel and 20% of them were active in at least one assay; those are over-represented in the sample as a whole. Calls of active or inactive are those of the source. Rule for the calls: active = growth percent below 10; inactive = the rest.
Possible outcomes: active, inactive

COMPOUND: CC[C@H](C)[C@H](NC(=O)[C@H]1CCCCN1C)C(=O)N(C)[C@H](C[C@@H](OC(C)=O)c1cccc(C(=O)N[C@@H](Cc2ccccc2)C[C@H](C)C(=O)O)n1)C(C)C
LABEL CLASS: inactive
//
COMPOUND: CCOC(=S)S[C@H]1C[C@@H]2[C@H](CC[C@]3(C)C(=O)CC[C@@H]23)[C@@]2(C)CCC(=O)C=C12
LABEL CLASS: inactive
//
COMPOUND: O=[N+]([O-])c1ccc([Se]C2CCCCC2Cl)c([N+](=O)[O-])c1 (centres undefined)
LABEL CLASS: inactive
//
COMPOUND: O=C(c1ccccc1O)c1[nH]c(Cl)c(Cl)c1-n1c(C(=O)c2ccccc2O)cc(Cl)c1Cl
LABEL CLASS: active

---

Tested on: SK-MEL-2 melanoma
EXPERIMENT SUMMARY: NCI-60 one-dose screen, 48 h (100 = growth as untreated, 0 = no growth, -100 = all killed)
TEST CONDITIONS: 10 µM unless noted
About 83,000 compounds went through this panel and 20% of them were active in at least one assay; those are over-represented in the sample as a whole.
Parameter: growth. Scope: all listed entries.

COMPOUND: CN1C(=O)N[C@H]2[C@@H]3NC(=O)c4ccc(Br)n4[C@@H]3C[C@]21O
TARGET OF ASSAY: SK-MEL-2 melanoma
growth / %: -55.5
--
COMPOUND: CCN1C(=O)C(=C/C=C/c2ccccc2)C(=O)N(CC)C1=O
TARGET OF ASSAY: SK-MEL-2 melanoma
growth / %: 99.9
--
COMPOUND: COC(=O)[C@@H](NC(=O)c1cn(CCC2CCCCC2)c2ccccc12)C(C)(C)C
TARGET OF ASSAY: SK-MEL-2 melanoma
growth / %: 78.1
--
COMPOUND: CCn1c2ccccc2c2cc(C(=O)c3ccc(C)c4ccccc34)ccc21
TARGET OF ASSAY: SK-MEL-2 melanoma
growth / %: 24
--
COMPOUND: Nc1ccc2c(c1)oc1ccccc12
TARGET OF ASSAY: SK-MEL-2 melanoma
growth / %: 102
--
COMPOUND: COc1cc2c(cc1OCCCCCn1c(-c3ccco3)nc3ccccc31)N=C[C@@H]1CCCN1C2=O
TARGET OF ASSAY: SK-MEL-2 melanoma
growth / %: -43.9
--
COMPOUND: CN1C(=O)C23CC4(C56CC78SSC(CO)(C(=O)N7C5Nc5ccccc56)N(C)C8=O)c5ccccc5NC4N2C(=O)C1(CO)SS3 (stereo not given)
TARGET OF ASSAY: SK-MEL-2 melanoma
growth / %: -84.6
--
COMPOUND: O=C1N[C@@H]2[C@@H](O)[C@@H](O)[C@H](O)C[C@H]2c2cc3c(c(O)c21)OCO3
TARGET OF ASSAY: SK-MEL-2 melanoma
growth / %: -63.6
--
COMPOUND: COc1ccc(N(CC(=O)NCCC[Te]c2ccccc2)C(=O)CCSC2=C(C)C(=O)c3ccccc3C2=O)cc1
TARGET OF ASSAY: SK-MEL-2 melanoma
growth / %: -49.6
--
COMPOUND: CC1=C(CCCNS(C)(=O)=O)C2=C(C)C3(CC3)[C@@](C)(O)C(=O)C2=C1
TARGET OF ASSAY: SK-MEL-2 melanoma
growth / %: -44.7
--
COMPOUND: ClCCN(CCCl)Cc1ccc(Nc2ccnc3cc(Cl)ccc23)cc1
TARGET OF ASSAY: SK-MEL-2 melanoma
growth / %: -19.5
--
COMPOUND: N#CCCNc1ccccc1
TARGET OF ASSAY: SK-MEL-2 melanoma
growth / %: 112
--
COMPOUND: O=C(CC1(O)C(=O)N(Cc2ccccc2)c2ccc(Cl)cc21)c1ccc(C(=O)NCC2CCC3(CC2)OOC2(CCCCC2)OO3)cc1 (stereo not given)
TARGET OF ASSAY: SK-MEL-2 melanoma
growth / %: 2.93
--
COMPOUND: Fc1cccc(NCOOC2(OOCNc3cccc(F)c3)CCCCC2)c1
TARGET OF ASSAY: SK-MEL-2 melanoma
growth / %: 91.7
--
COMPOUND: COC(=O)CC[C@H](Cc1ccccc1)NC(=O)c1csc([C@@H](C[C@H](C(C)C)N(C)C(=O)[C@@H](NC(=O)[C@H]2CCCCN2C)C(C)C)OC(C)=O)n1
TARGET OF ASSAY: SK-MEL-2 melanoma
growth / %: 54.1
--
COMPOUND: OCc1ccc2c(c1)OCO2
TARGET OF ASSAY: SK-MEL-2 melanoma
growth / %: 99.5
--
COMPOUND: CN[C@@]1(c2ccccc2Cl)CCCC[C@@H]1NCC1CCCO1 (stereo not given in full)
TARGET OF ASSAY: SK-MEL-2 melanoma
growth / %: 99.7
--
COMPOUND: Clc1ccc(COC(Cn2ccnc2)c2ccc(Cl)cc2Cl)cc1 (stereo not given)
TARGET OF ASSAY: SK-MEL-2 melanoma
growth / %: 68.9
--
COMPOUND: Cc1c(NS(=O)(=O)c2ccccc2)ccc([N+](=O)[O-])c1Cl
TARGET OF ASSAY: SK-MEL-2 melanoma
growth / %: 65.1
--
COMPOUND: O=C1C2C(C(=O)[N]1[Hg][c]1ccccc1)C1(Cl)C(Cl)=C(Cl)C2(Cl)C1(Cl)Cl (stereo not given)
TARGET OF ASSAY: SK-MEL-2 melanoma
growth / %: 50.8

---

Tested on: DU-145 prostate
EXPERIMENT SUMMARY: NCI-60 one-dose screen, 48 h (100 = growth as untreated, 0 = no growth, -100 = all killed)
TEST CONDITIONS: 10 µM unless noted
This is part of a sample that, as a whole, favours compounds with a hit. Of some 83,000 tested, about 20% had one in any assay.
In this section, each of the molecules is paired with its reported growth.

MOLECULE: COC(=O)[C@@H](C)C[C@H](Cc1cn(C)c2ccccc12)NC(=O)c1csc([C@@H](C[C@H](C(C)C)N(C)C(=O)[C@@H](NC(=O)[C@H]2CCCCN2C)C(C)C)OC(C)=O)n1
TARGET OF ASSAY: DU-145 prostate
growth [%]: 12.4

MOLECULE: Cc1cc(C)c(CBr)c(C)c1
TARGET OF ASSAY: DU-145 prostate
growth [%]: 107

MOLECULE: COC(=O)N[C@H]1CCc2c(Br)c(OC)c(OC)c(OC)c2-c2ccc(SC)c(=O)cc21
TARGET OF ASSAY: DU-145 prostate
growth [%]: -1.4

MOLECULE: Fc1c[c-]c(-c2ccccn2)c(F)c1.[CH3-].[Pt+2].c1ccc([PH+](c2ccccc2)c2ccccn2)cc1
TARGET OF ASSAY: DU-145 prostate
growth [%]: 15.9

MOLECULE: NC(=O)C(Br)c1ccccc1 (stereo not drawn)
TARGET OF ASSAY: DU-145 prostate
growth [%]: 103

MOLECULE: COc1ccc(C/C(C)=C(\c2ccc(OCCN3CCOCC3)cc2)c2ccc(OC(=O)Cc3ccccc3)cc2)cc1
TARGET OF ASSAY: DU-145 prostate
growth [%]: 9.74

MOLECULE: O=C1CCC2(O)[C@@H]3Cc4ccc(O)c5c4[C@]2(CCN3Cc2ccoc2)C1O5 (stereo partly drawn)
TARGET OF ASSAY: DU-145 prostate
growth [%]: 106

MOLECULE: COc1ccc(-n2c(C)nc3cc(OC)c(OC)cc3c2=O)cc1OC
TARGET OF ASSAY: DU-145 prostate
growth [%]: 105

MOLECULE: O=C(Nc1ccc([As]=[As]c2ccc(NC(=O)c3ccccc3)cc2)cc1)c1ccccc1 (stereo not drawn)
TARGET OF ASSAY: DU-145 prostate
growth [%]: -96

MOLECULE: Cn1cc(C2=C(c3cn(C4CCN(Cc5ccccn5)CC4)c4ccccc34)C(=O)NC2=O)c2ccccc21
TARGET OF ASSAY: DU-145 prostate
growth [%]: 70

MOLECULE: O=C([O][Hg][c]1ccccc1)c1ccccc1
TARGET OF ASSAY: DU-145 prostate
growth [%]: -35.7

MOLECULE: C/C(CC(C)(C)N1CC1)=N\NC(=O)Nc1cccc2ccccc12
TARGET OF ASSAY: DU-145 prostate
growth [%]: 68.2

MOLECULE: O=C(CCCC1CCCCC1)OCC(Cl)(Cl)Cl
TARGET OF ASSAY: DU-145 prostate
growth [%]: 105

MOLECULE: N#CC1(C#N)C(c2ccc(N(CCCl)CCCl)cc2)OC23CCCCC2C1(C#N)C(=N)O3 (stereo not drawn)
TARGET OF ASSAY: DU-145 prostate
growth [%]: 56.4

MOLECULE: CC(=O)OC1C(OC/C2=C/C3[C@@H](C(C)C)CC=C(C)[C@@H]3CC(OC(=O)/C=C/c3cn(C)cn3)[C@]3(C)C=C[C@@]2(O)O3)OCC(O)C1O (stereo partly drawn)
TARGET OF ASSAY: DU-145 prostate
growth [%]: -10.2

MOLECULE: Fc1cccc(NCOOC2(OOCNc3cccc(F)c3)CCCCC2)c1
TARGET OF ASSAY: DU-145 prostate
growth [%]: 98.6

MOLECULE: CC[C@H](C)[C@H](NC(=O)[C@H]1CCCCN1C)C(=O)N(C)[C@H](C[C@@H](O)c1nc(C(=O)N[C@@H](Cc2ccccc2)C[C@H](C)C(=O)O)cs1)C(C)C
TARGET OF ASSAY: DU-145 prostate
growth [%]: 112

MOLECULE: CN(C)C(=O)Oc1ccccc1
TARGET OF ASSAY: DU-145 prostate
growth [%]: 108

MOLECULE: O=C(O)C(Cl)(Cl)C(F)(F)F
TARGET OF ASSAY: DU-145 prostate
growth [%]: 108

MOLECULE: CS(=O)(=O)CCN1CC2CCCC(C2)C1
TARGET OF ASSAY: DU-145 prostate
growth [%]: 102

MOLECULE: CN[C@@]1(c2ccccc2Cl)CCCC[C@@H]1NCC1CCCO1 (stereo partly drawn)
TARGET OF ASSAY: DU-145 prostate
growth [%]: 111

MOLECULE: O=C1NC(=O)C(=Cc2ccc(OCCCCC3CCCCC3)c(Cl)c2)C(=O)N1
TARGET OF ASSAY: DU-145 prostate
growth [%]: 106

MOLECULE: C1CCC2(CC1)OOCNCOO2
TARGET OF ASSAY: DU-145 prostate
growth [%]: 111

MOLECULE: C/C(=C\c1ccn(-c2ccc(N)c(F)c2)n1)[C@@H]1C[C@@H]2O[C@]2(C)CCC[C@H](C)[C@H](O)[C@@H](C)C(=O)C(C)(C)[C@@H](O)CC(=O)O1
TARGET OF ASSAY: DU-145 prostate
growth [%]: -26

MOLECULE: Nc1ccc2c(c1)oc1ccccc12
TARGET OF ASSAY: DU-145 prostate
growth [%]: 103

MOLECULE: CCOP(=O)(Cc1ccc(C#N)cc1)OCC
TARGET OF ASSAY: DU-145 prostate
growth [%]: 116

MOLECULE: Cc1c(NS(=O)(=O)c2ccccc2)ccc([N+](=O)[O-])c1Cl
TARGET OF ASSAY: DU-145 prostate
growth [%]: 94

MOLECULE: CC(CC1CCCCC1)NCc1ccccc1 (stereo not drawn)
TARGET OF ASSAY: DU-145 prostate
growth [%]: 108

MOLECULE: CCn1nccc1NC(=O)C(=O)c1cn(Cc2ccc(F)cc2)c2cccc(OC)c12
TARGET OF ASSAY: DU-145 prostate
growth [%]: 106

MOLECULE: COC(=O)[C@@H](C)C[C@H](Cc1ccccc1)NC(=O)c1csc([C@@H](C[C@H](C(C)C)N(C)C(=O)[C@H](C)NC(=O)[C@H]2CCCN2C)OC(C)=O)n1
TARGET OF ASSAY: DU-145 prostate
growth [%]: 51.6

MOLECULE: C[S+]1C=Cc2ccccc2C1c1ccc(Cl)cc1 (stereo not drawn)
TARGET OF ASSAY: DU-145 prostate
growth [%]: 99.8

MOLECULE: Clc1cccc(N2COOC3(OOC2)C2CC4CC(C2)CC3C4)c1
TARGET OF ASSAY: DU-145 prostate
growth [%]: 89.6

MOLECULE: CC(=O)O[C@H](C[C@H](C(C)C)N(C)C(=O)[C@@H](NC(=O)[C@H]1CCCCN1C)C(C)(C)C)c1nc(C(=O)N[C@@H](Cc2ccccc2)C[C@H](C)C(=O)O)cs1
TARGET OF ASSAY: DU-145 prostate
growth [%]: 0.642

MOLECULE: CO[C@H](C(=O)O)[C@@H]1Cc2cc3cc(OC4CC(OC5CC(O)C(O)C(C)O5)C(O)C(C)O4)c(C)c(O)c3c(O)c2C(=O)[C@H]1OC1CC(OC2CC(OC3CC(C)(O)C(O)C(C)O3)C(O)C(C)O2)C(O)C(C)O1 (stereo partly drawn)
TARGET OF ASSAY: DU-145 prostate
growth [%]: 21.5

MOLECULE: O=C(N/N=C\c1ccc(N(CCCl)CCCl)cc1)c1cccc([N+](=O)[O-])c1
TARGET OF ASSAY: DU-145 prostate
growth [%]: 85.9

MOLECULE: CNC(=O)Oc1cccc(C(F)(F)F)c1
TARGET OF ASSAY: DU-145 prostate
growth [%]: 128

MOLECULE: COc1cccc2c1c(C(=O)c1ccco1)cn2Cc1ccc(F)cc1
TARGET OF ASSAY: DU-145 prostate
growth [%]: 100

MOLECULE: C[n+]1c(/C=C/c2ccc(N(CCCl)CCCl)cc2)sc2ccccc21
TARGET OF ASSAY: DU-145 prostate
growth [%]: 45.2
